Target: recombinant pentameric gH complex (Towne strain) (human cytomegalovirus, Towne strain) (UniProt P17176)
Sequence (P17176 30-715, one chain of several): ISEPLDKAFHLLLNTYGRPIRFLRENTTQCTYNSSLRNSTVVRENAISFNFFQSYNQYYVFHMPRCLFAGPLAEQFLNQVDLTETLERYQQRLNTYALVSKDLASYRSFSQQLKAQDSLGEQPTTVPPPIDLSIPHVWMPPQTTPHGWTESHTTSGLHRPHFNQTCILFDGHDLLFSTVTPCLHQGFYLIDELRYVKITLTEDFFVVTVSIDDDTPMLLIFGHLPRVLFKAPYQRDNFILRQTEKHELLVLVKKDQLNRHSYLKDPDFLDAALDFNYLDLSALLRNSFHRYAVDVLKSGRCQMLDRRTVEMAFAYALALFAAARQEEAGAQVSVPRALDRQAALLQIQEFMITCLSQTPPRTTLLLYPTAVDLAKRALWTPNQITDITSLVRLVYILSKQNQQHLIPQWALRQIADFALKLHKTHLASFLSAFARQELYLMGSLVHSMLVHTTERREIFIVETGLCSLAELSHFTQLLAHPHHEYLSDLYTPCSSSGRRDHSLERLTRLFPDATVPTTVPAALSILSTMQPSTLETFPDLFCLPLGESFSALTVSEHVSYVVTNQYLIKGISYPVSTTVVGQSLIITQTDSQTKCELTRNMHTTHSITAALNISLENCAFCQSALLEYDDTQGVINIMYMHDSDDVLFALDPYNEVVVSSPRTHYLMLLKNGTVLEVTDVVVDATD
Experiment: BLI competition on His-pentamer; competitor (antibody 2): 270.7
property: Pair-wise inhibition (%)

See these solved cases before continuing.
INSERT INTO assay_data (binder, measured) VALUES
  ('3-7 (antibody, V domains shown) VH: QVQLVQSGAEVKKPGASVKVSCKTSGYTFNTYAISWVRQAPGQGLEWVGWINTYSGSTKYAQKVQGRVTMTTDTSTSTAYMELRGLRSDDTAVYYCARDGYNWGFLDFWGQGSLVTVSS VL: DIQMTQSPSSLSASVGDRVTITCRASQGISNYLAWYQQKPGKLPKLLIYAASTLQSGVPSRFSGSGSGTDFTLTISSLQPEDVASYYCQKYNSAPLTFGPGTKVDIK', '16%'),
  ('3-16 (antibody, V domains shown) VH: QVQVVQSGAEVKKPGASVMVSCKTSGYRFTIYSIAWMRQAPGQGLEWMGSINTYNGNTKYAEKFQGRVTMSRDTSTSTAYMEVRSLGSADTAMYYCARDAENWGFFDDWGQGTLVTVSS VL: EIVLTQSPGTVSLSPGERVTLSCRASQSVGRHLAWYQQKPGQPPRLLIYGASTRATGVPDRFSGSGSETEFTLAISSLQSEDFALYYCQQYNTWPYTFGQGTKLEIK', '-1%');

We next turn to a different binder, shown below.
Request: # Pair-wise inhibition (%) lookup, item 1-103 (antibody, V domains shown) VH: QLQLQESGPGLVKPSETLSLTCSVSGDAISGSNYYWGWIRQPPGKGLQWIGSIYHTGSTFYNPSFSSRVTLSVDTSKNQFSLKLISVNAADTAVYYCARRIRGYSGTYDWGQGTLVTVSS VL: DIQLTQSPSFLSASVGDRVTITCRASQDISSYVAWYQQKPGNAPKLLISSASTLPSGVPSRFSGSRSGTDFTLTISSLQPEDFATYYCQQLNNFGPGTTVDIK
Response: -35%
